Examples of molecules with documented pKd follow.
biological target: human α1H T-type channels (Homo sapiens, UniProt O95180); test: T-type calcium channel block, whole cell patch clamp in HEK cells; conditions: HEK cells stably expressing human α1H; measured at 1 μM drug; mainly non-inactivated protocol
Sequence (O95180 whole entry): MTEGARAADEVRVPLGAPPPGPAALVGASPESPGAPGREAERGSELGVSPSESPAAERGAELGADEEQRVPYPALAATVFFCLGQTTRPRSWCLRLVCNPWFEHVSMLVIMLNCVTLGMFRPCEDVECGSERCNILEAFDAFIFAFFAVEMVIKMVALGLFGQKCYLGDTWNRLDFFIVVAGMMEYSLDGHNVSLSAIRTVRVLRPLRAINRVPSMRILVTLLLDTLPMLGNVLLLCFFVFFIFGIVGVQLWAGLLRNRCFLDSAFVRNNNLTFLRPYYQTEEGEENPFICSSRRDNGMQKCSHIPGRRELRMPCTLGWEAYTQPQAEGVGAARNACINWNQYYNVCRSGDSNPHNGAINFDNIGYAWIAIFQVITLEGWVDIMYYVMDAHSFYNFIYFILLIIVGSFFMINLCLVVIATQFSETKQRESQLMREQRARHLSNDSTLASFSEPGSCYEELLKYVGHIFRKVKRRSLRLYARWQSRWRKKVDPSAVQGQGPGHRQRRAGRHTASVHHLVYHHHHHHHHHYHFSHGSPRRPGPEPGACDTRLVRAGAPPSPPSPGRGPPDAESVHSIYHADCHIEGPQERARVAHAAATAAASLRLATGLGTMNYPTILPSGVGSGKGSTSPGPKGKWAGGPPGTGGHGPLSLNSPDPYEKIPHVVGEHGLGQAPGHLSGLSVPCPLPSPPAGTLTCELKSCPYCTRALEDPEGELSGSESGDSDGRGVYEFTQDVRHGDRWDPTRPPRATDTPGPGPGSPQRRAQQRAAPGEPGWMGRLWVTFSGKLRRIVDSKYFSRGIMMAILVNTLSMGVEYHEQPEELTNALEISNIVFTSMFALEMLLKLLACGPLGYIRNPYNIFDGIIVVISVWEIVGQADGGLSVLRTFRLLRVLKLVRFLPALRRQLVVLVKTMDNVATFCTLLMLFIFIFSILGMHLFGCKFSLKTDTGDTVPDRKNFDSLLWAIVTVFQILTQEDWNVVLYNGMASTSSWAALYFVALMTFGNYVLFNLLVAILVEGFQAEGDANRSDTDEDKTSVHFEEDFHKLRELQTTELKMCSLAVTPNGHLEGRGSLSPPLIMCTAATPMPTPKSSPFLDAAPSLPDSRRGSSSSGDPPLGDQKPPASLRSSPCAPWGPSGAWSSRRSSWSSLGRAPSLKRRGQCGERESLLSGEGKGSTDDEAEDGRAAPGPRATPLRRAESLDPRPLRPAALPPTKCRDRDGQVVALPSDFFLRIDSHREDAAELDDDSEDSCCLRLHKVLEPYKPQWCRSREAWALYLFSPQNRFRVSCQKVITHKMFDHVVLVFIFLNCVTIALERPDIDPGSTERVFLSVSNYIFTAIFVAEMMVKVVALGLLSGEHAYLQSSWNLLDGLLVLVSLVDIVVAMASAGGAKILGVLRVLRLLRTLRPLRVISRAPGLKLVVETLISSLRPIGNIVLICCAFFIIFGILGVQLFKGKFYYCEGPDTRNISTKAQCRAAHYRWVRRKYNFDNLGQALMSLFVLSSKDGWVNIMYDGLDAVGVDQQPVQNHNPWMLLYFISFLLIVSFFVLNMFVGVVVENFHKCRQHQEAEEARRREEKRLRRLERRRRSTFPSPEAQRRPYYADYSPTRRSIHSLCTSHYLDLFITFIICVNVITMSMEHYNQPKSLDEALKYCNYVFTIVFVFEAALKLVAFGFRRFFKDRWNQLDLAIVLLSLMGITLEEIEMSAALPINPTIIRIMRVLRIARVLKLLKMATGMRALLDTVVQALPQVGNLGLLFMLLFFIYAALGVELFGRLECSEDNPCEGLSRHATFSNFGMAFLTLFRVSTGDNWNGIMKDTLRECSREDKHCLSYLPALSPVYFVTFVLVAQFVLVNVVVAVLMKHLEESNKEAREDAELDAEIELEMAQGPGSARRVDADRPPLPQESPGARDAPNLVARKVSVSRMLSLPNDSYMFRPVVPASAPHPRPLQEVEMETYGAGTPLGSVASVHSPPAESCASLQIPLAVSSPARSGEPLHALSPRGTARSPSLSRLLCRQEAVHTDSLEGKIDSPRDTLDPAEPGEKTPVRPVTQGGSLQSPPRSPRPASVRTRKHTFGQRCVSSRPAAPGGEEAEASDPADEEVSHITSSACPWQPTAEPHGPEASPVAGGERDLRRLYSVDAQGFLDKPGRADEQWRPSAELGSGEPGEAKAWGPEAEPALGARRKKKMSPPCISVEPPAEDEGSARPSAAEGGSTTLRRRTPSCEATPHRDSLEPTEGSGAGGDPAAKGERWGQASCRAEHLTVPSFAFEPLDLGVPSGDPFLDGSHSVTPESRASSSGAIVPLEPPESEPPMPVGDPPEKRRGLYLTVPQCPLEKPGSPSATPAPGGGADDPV
Note on units: pKd is unitless, being -log10 of a concentration expressed in mol/L.

As a guide, the following entries are already answered.
Cc1c(C(=O)N2CCN(c3ccccc3F)CC2)sc2ncn(CC(=O)NC3CCCC3)c(=O)c12; 6.12
Cc1c(C(=O)N2CCN(c3cccc(Cl)c3)CC2)sc2ncn(CC(=O)Nc3ccc(F)cc3F)c(=O)c12; 6.74
Cc1c(C(=O)N2CCN(c3ccc(F)c(Cl)c3)CC2)sc2ncn(CC(=O)N3CCCC3)c(=O)c12; 4.74
Cc1c(C(=O)N2CCN(c3ccccc3F)CC2)sc2ncn(CC(=O)Nc3cccc(C(F)(F)F)c3)c(=O)c12; 6.10
Cc1c(C(=O)N2CCN(c3cccc(Cl)c3)CC2)sc2ncn(CC(=O)NC3CCCCC3)c(=O)c12; 7.05

## Input So what pKd did Cc1c(C(=O)N2CCN(c3ccccc3)CC2)sc2ncn(CC(=O)NC(C)(C)C)c(=O)c12 get with human α1H T-type channels (Homo sapiens, UniProt O95180)?
## Output 5.67

## Input Okay, and Cc1c(C(=O)N2CCN(c3ccc(F)cc3)CC2)sc2ncn(CC(=O)N3CC[C@H](F)C3)c(=O)c12 ?
## Output 5.20

---

molecular target: human α1G T-type channels (Homo sapiens, UniProt O43497); construct: expressed in transfected cells; host or cells: HEK 293; assay: T-type calcium channel block, whole cell patch clamp in HEK cells; assay type: cell-based; conditions: HEK cells stably expressing human α1G; measured at 1 μM drug; mainly non-inactivated protocol
Sequence (O43497 whole entry): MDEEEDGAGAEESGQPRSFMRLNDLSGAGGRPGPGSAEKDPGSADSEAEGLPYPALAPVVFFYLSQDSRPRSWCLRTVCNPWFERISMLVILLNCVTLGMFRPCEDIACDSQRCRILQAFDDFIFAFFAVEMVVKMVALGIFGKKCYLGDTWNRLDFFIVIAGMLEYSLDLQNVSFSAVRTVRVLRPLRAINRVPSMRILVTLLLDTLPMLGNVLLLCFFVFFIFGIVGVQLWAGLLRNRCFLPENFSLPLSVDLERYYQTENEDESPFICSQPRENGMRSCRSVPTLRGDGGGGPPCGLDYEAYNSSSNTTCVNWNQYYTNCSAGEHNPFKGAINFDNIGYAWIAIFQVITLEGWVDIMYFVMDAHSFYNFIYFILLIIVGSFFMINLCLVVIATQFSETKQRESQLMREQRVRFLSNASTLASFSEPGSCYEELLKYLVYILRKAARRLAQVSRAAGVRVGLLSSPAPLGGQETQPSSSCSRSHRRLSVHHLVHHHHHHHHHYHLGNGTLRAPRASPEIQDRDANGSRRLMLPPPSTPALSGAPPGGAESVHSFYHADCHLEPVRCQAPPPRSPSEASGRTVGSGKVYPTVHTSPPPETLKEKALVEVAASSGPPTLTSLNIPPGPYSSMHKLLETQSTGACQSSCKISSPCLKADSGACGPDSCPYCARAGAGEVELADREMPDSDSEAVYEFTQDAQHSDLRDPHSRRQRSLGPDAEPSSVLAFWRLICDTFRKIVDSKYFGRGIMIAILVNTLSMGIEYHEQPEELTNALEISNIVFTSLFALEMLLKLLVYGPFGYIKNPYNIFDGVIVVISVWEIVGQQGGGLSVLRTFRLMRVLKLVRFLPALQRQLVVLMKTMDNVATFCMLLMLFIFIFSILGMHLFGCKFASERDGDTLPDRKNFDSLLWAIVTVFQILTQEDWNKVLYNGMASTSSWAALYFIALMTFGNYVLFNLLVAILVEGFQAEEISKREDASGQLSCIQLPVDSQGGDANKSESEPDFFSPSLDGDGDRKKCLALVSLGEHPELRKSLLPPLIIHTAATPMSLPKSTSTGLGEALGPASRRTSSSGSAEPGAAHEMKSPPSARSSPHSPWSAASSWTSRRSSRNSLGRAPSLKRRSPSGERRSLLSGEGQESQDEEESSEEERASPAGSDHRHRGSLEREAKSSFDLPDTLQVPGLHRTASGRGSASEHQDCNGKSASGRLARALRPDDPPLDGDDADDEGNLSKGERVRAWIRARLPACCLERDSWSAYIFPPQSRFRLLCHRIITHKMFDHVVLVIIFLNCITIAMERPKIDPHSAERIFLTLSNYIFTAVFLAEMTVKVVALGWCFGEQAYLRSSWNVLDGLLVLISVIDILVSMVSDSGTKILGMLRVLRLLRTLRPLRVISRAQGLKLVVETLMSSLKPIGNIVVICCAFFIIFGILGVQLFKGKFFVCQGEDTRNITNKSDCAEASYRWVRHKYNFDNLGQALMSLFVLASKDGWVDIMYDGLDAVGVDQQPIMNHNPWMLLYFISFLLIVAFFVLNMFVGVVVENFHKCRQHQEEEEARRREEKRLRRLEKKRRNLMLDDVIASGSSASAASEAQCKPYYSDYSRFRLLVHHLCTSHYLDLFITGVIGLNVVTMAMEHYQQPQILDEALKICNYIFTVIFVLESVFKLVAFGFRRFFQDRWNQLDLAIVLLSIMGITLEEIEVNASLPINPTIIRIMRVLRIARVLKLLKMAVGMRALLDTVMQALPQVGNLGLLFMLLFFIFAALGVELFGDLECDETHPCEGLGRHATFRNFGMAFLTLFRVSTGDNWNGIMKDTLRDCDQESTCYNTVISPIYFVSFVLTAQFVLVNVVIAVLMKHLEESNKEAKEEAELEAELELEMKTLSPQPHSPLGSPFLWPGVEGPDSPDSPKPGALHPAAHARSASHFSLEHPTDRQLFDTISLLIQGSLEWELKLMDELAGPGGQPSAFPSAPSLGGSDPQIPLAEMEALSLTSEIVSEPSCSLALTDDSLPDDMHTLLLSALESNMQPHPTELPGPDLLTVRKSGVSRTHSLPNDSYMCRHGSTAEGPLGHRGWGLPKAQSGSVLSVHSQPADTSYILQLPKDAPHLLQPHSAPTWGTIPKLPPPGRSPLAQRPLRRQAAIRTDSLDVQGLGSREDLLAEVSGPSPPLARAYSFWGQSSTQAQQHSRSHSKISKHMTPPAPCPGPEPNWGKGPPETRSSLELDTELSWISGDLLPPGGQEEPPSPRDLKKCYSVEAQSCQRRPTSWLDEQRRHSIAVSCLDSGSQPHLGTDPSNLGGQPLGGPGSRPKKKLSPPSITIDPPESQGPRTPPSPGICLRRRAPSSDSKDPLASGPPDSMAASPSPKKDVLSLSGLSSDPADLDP
readout: log10 of Kd (log10 of the value in nM)
Transform log10 | Measure Kd | Unit nM

Cc1c(C(=O)N2CCN(c3ccc(F)c(Cl)c3)CC2)sc2ncn(CC(=O)N3CCCC3)c(=O)c12 [Compound 134]; 2.71
Cc1c(C(=O)N2CCN(c3cc(C(F)(F)F)cc(C(F)(F)F)c3)CC2)sc2ncn(CCN3CCCC3=O)c(=O)c12 [Compound 93]; 3.43
Cc1c(C(=O)N2CCN(c3cccc(Cl)c3)CC2)sc2ncn(CC(=O)NC3CCCC3)c(=O)c12 [Compound 37]; 2.48
Cc1c(C(=O)N2CCN(c3ccccc3)CC2)sc2ncn(C(C)C(=O)NC3CCCCC3)c(=O)c12 (centres unmarked) [Compound 33]; 4.22

# ---- query compound ----
## Input Endpoint output: log10 of Kd of CCN(CC(F)(F)F)C(=O)Cn1cnc2sc(C(=O)N3CCN(c4cccc(Cl)c4)CC3)c(C)c2c1=O [Compound 127] . Value?
## Output 3.06

---

target: human α1G T-type channels (Homo sapiens, UniProt O43497); experiment: T-type calcium channel block, whole cell patch clamp in HEK cells; conditions: HEK cells stably expressing human α1G; measured at 1 μM drug; mainly non-inactivated protocol
readout: Kd

Cc1c(C(=O)N2CC[C@H](F)C2)sc2ncn(CC(=O)Nc3cc(C(F)(F)F)cc(C(F)(F)F)c3)c(=O)c12 [Compound 71]; > 74.3 µM
CCN(CC(F)(F)F)C(=O)Cn1cnc2sc(C(=O)N3CCN(c4ccc(C(F)(F)F)cc4)CC3)c(C)c2c1=O [Compound 130]; 3.47 µM
Cc1c(C(=O)N2CCN(c3cccc(Cl)c3)CC2)sc2ncn(CC(=O)N3CCCC3)c(=O)c12 [Compound 136]; 1.56 µM

# ---- query compound ----
## Input Endpoint output: Kd of O=C(Cn1cnc2ccc(C(=O)N3CCN(c4cccc(Cl)c4)CC3)cc2c1=O)N1CCCC1 [Compound 115] . Value?
## Output 4.28 µM

---

molecular target: human α1H T-type channels (Homo sapiens, UniProt O95180); construct: expressed in transfected cells; host or cells: HEK 293; assay: T-type calcium channel block, whole cell patch clamp in HEK cells; type: cell-based; conditions: HEK cells stably expressing human α1H; measured at 1 μM drug; mainly non-inactivated protocol
readout: Kd (nM)
Express the result in nM but write the number alone.

## Input So what Kd did Cc1c(C(=O)N2CCN(c3ccccc3F)CC2)sc2ncn(CC(=O)Nc3ccc(C(F)(F)F)cc3)c(=O)c12 [Compound 142] get with human α1H T-type channels (Homo sapiens, UniProt O95180)?
## Output 700

## Input Okay, and Cc1c(C(=O)N2CCN(c3cccc(C(F)(F)F)c3)CC2)sc2ncn(CC(=O)NC(C)(C)C)c(=O)c12 [Compound 12] ?
## Output 1060

## Input Okay, and Cc1c(C(=O)N2CCN(c3cccc(Cl)c3)CC2)sc2ncn(CC(=O)NC(C)(C)C)c(=O)c12 [Compound 16] ?
## Output 630

## Input Okay, and Cc1c(C(=O)N2CCN(c3ccccc3F)CC2)sc2ncn(C(C)C(=O)NC3CCCC3)c(=O)c12 (stereo not shown) [Compound 47] ?
## Output 560

## Input Okay, and Cc1c(C(=O)N2CCN(c3cccc([N+](=O)[O-])c3)CC2)sc2ncn(CC(=O)NC3CCCCC3)c(=O)c12 [Compound 29] ?
## Output 950

## Input Okay, and Cc1c(C(=O)N2CCN(c3ccc(F)cc3)CC2)sc2ncn(CC(=O)NC3CCCCC3)c(=O)c12 [Compound 22] ?
## Output 430

## Input Okay, and Cc1c(C(=O)N2CCN(c3ccc(Cl)cc3)CC2)sc2ncn(CC(=O)NC3CCCCC3)c(=O)c12 [Compound 20] ?
## Output 180
